experiment: Example 1: pharmacokinetics after in-clinic subcutaneous dose; format: in vivo, human; conditions: human, in vivo, sc, 1.75 mg, 1.75 mg SC, Visit 7; read-out: Cmax, Mean
Quantity measured: Cmax
Respond with a number, then the unit of measure.

Find the recorded Cmax belonging to CCCC[C@H](NC(C)=O)C(=O)N[C@H]1CC(=O)NCCCC[C@@H](C(=O)O)NC(=O)[C@H](Cc2c[nH]c3ccccc23)NC(=O)[C@H](CCCNC(=N)N)NC(=O)[C@@H](Cc2ccccc2)NC(=O)[C@H](Cc2c[nH]cn2)NC1=O [bremelanotide] and report it.
78 ng/mL

* * *

experiment: Example 1: pharmacokinetics after in-clinic subcutaneous dose; assay type: in vivo, human; conditions: human, in vivo, sc, 1.75 mg, 1.75 mg SC, Visit 5; read-out: AUC(0-2h), Mean
Quantity measured: AUC(0-t) (ng·h/mL)
Field: numeric (ng·h/mL). Do not append units.

Look up AUC(0-t) for this molecule: CCCC[C@H](NC(C)=O)C(=O)N[C@H]1CC(=O)NCCCC[C@@H](C(=O)O)NC(=O)[C@H](Cc2c[nH]c3ccccc23)NC(=O)[C@H](CCCNC(=N)N)NC(=O)[C@@H](Cc2ccccc2)NC(=O)[C@H](Cc2c[nH]cn2)NC1=O [bremelanotide]
112

Entry source: patent US9352013B2
